Each entry below lists one item and its recorded IC90 value.
Target: plasma kallikrein (Homo sapiens)
Construct: from tissue
Sequence (P03952 391-638 limits assumed): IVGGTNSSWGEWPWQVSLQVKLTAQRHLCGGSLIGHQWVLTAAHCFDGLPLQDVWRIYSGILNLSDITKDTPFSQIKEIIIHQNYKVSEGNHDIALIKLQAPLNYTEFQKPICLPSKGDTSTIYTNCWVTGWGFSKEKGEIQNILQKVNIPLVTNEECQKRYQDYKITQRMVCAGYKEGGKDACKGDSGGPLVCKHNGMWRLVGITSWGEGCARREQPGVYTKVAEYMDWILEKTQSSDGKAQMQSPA
Sequence (P03952 20-390 partner limits assumed): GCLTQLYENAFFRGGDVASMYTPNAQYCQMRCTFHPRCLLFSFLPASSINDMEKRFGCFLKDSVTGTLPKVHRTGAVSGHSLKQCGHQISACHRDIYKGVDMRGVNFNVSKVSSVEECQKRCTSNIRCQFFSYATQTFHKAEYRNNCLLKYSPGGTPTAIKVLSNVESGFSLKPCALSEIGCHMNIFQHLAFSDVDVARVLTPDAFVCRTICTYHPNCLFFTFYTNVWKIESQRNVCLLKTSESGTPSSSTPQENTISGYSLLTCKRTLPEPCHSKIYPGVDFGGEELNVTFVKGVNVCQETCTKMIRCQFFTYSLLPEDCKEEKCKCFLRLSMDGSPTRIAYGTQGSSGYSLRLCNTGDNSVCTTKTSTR
Test: Neat human plasma assay, FXIIa contact pathway-activated, PFR-AMC substrate
Format: biochemical
Details: citrated human plasma 78% final, 10 nM human FXIIa, 100 μM PFR-AMC; read-out: Human Plasma Assay: IC90

Recorded results for 5 compounds are shown here.
1) CN1CCN(c2cc(C3CC3)cn3cc(CNc4cc(NC(=O)[C@H]5C[C@@H]5c5cccc(Cl)c5)ncn4)nc23)CC1=O | 1500 to 10000 nM
2) CS(=O)(=O)c1cc(C2CC2)cn2cc(CNc3cc(NC(=O)[C@H]4C[C@@H]4c4cccc(Cl)c4)ncn3)nc12 [Example I-162] | 1500 to 10000 nM
3) CN(C)C(=O)c1cc(C2CC2)cn2cc(CNc3cc(NC(=O)[C@H]4C[C@@H]4c4cccc(Cl)c4)ncn3)nc12 | 400 to 1500 nM
4) Cc1ccnc([C@H]2C[C@@H]2C(=O)Nc2cc(N[C@H](C)c3cn4cc(C5(F)CC5)cc(N5CC(=O)N(C)C5=O)c4n3)ncn2)n1 | 400 to 1500 nM
5) O=C(Nc1cc(NCc2cn3cc(C4CC4)cc(N4CCN(C5CC5)CC4)c3n2)ccn1)[C@H]1C[C@@H]1c1cccc(Cl)c1 | 1500 to 10000 nM

Could you now consider this next compound?
Q: IC90 lookup needed for "O=C(Nc1cc(N(CCO)Cc2cn3cc(C4CC4)ccc3n2)ccn1)[C@H]1C[C@@H]1c1cccc(Cl)c1" , thanks.
Ans: 10000 to 48000 nM

* * *

Biological target: plasma kallikrein (Homo sapiens)
Construct: from tissue
Experiment: Neat human plasma assay, FXIIa contact pathway-activated, PFR-AMC substrate
Format: biochemical
Details: citrated human plasma 78% final, 10 nM human FXIIa, 100 μM PFR-AMC; read-out: Human Plasma Assay: IC90
Each entry below lists one item and its recorded IC90 value.

1) Cc1ccnc([C@H]2C[C@@H]2C(=O)Nc2cc(NCc3cn4cc(C5CC5)cc(N5CC(=O)N(C)C5=O)c4n3)nc(C)n2)n1 (racemic) [Example 366] | < 400 nM
2) Cc1ccnc([C@H]2C[C@@H]2C(=O)Nc2cc(N(C)Cc3cn4cc(C5CC5)cc(N5CC(=O)N(C)C5=O)c4n3)ncn2)n1 (racemic) | < 400 nM
3) Cc1ccnc([C@H]2C[C@@H]2C(=O)Nc2ncnc(NCc3cn4cc(C5CC5)cc(N5CC(=O)N(C)C5=O)c4n3)c2F)n1 (racemic) | 400 to 1500 nM
4) O=C(Nc1cc(NCc2cn3cc(C4CC4)cc(CO)c3n2)ncn1)[C@H]1C[C@@H]1c1cccc(Cl)c1 (racemic) | > 48000 nM
5) CN1CCN(c2cc(C3CC3)cn3cc(CNc4ccnc(NC(=O)[C@H]5C[C@@H]5c5cccc(Cl)c5)c4)nc23)CC1 | < 400 nM

Could you now consider this next compound?
Q: IC90 lookup needed for Cc1nccc([C@H]2C[C@@H]2C(=O)Nc2cc(NCc3cn4cc(C5CC5)cc(N5CC(=O)N(C)C5=O)c4n3)ncn2)n1 (racemic) , thanks.
Ans: 400 to 1500 nM

* * *

Target: human activated kallikrein enzyme (Homo sapiens, UniProt P03952)
Assay: Plasma kallikrein inhibition, fluorogenic PFR-AMC substrate, 500 pM activated kallikrein format
Format: biochemical
Conditions: 500 pM activated kallikrein, 300 uM PFR-AMC, 30 min preincubation, 10 min reaction; read-out: Primary Dose Response Assay: Average EC50
Each entry below lists one item and its recorded EC50 value.

Recorded results for 5 compounds are shown here.
1. Cc1ccnc([C@H]2C[C@@H]2C(=O)Nc2cc(NCc3cn4cc(C5CC5)cc(N5CCOC5=O)c4n3)ncn2)n1 [Example 376] | < 1 nM
2. Cc1ccnc([C@H]2C[C@@H]2C(=O)Nc2ncc(F)c(N(C)Cc3cn4cc(C5CC5)cc(N5CC(=O)NC5=O)c4n3)n2)n1 (racemic) [Example 516] | < 1 nM
3. Cc1ccnc([C@H]2C[C@@H]2C(=O)Nc2cc(NCc3cn4cc(C5CC5)cc(N5CC(=O)N(C)C5=O)c4n3)nc(C3(O)COC3)n2)n1 (racemic) [Example 113] | < 1 nM
4. O=C(Nc1cc(NCc2cn3cc(C4CC4)ccc3n2)ncn1)[C@H]1C[C@@H]1c1cc(Cl)ccn1 (racemic) [Example I-265] | 1 to 10 nM
5. Cc1ccnc([C@H]2C[C@@H]2C(=O)Nc2cc(N(C)Cc3cn4cc(C5CC5)cc(N5CC(=O)NC5=O)c4n3)nc(C3CC3)n2)n1 [Example 408] | 1 to 10 nM

Q: EC50 lookup needed for COc1ccc(C#N)c([C@H]2C[C@@H]2C(=O)Nc2cc(NCc3cn4cc(C5CC5)ccc4n3)ccn2)c1 (single isomer, unassigned) [Example I-224] , thanks.
Ans: < 1 nM

Q: Item: O=C(Nc1cc(NCc2cn3cc(C4CC4)cc(N4CCNC4=O)c3n2)ncn1)[C@H]1C[C@@H]1c1cccc(Cl)c1 [Example 309]
Ans: < 1 nM

Q: Item: Cc1ccnc([C@H]2C[C@@H]2C(=O)Nc2cc(O[C@H](C)c3cn4cc(C5CC5)cc(N5CC(=O)N(C)C5=O)c4n3)cnn2)n1 (single isomer, unassigned) [Example 42]
Ans: < 1 nM

Q: Item: C[S+]([O-])c1nc(NCc2cn3cc(C4CC4)ccc3n2)cc(NC(=O)[C@H]2C[C@@H]2c2cccc(Cl)c2)n1 (relative stereo) [Example 109]
Ans: 1 to 10 nM

Q: Item: CN1CCN(c2cc(Cl)cn3cc(CNc4ccnc(NC(=O)[C@H]5C[C@@H]5c5cccc(Cl)c5)c4)nc23)CC1 [Example I-252]
Ans: < 1 nM

Q: Item: Cc1ccnc([C@H]2C[C@@H]2C(=O)Nc2cc(NC(C)c3cn4cc(Cl)cc(N5CC(=O)N(C)C5=O)c4n3)nc(C)n2)n1 (stereo partly drawn) [Example 356]
Ans: < 1 nM

Q: Item: O=C(Nc1cc(NCc2cn3cc(C4CC4)cc(N4CCOC4=O)c3n2)ccn1)[C@H]1C[C@@H]1c1cccc(Cl)c1 [Example I-238]
Ans: < 1 nM
